Just for reference, paper PMC3355152 is where these values come from.

target: SpLsm5;SpLsm6;SpLsm7 (Schizosaccharomyces …, UniProt O42978;Q9UUI1;O74499 1-80;1-75;1-113, ||); assay: fluorescence anisotropy; FA: 20 mM Hepes pH 7.5, 100 mM NaCl, 25 C, 0.1 uM RNA; SPR (Biacore 3000): 20 mM Hepes pH 7.5, 100 mM NaCl, 25 C, 1 uM protein; conditions: protein: recombinant;recombinant;recombinant; tags: N-terminal His6;none;; chain copies: 2;2;2; label: 5' 6-FAM; single strand
Sequence (O42978 whole entry, chain 1 of 3): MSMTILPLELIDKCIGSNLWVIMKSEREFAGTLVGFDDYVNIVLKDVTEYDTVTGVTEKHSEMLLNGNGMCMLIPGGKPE
Sequence (Q9UUI1 whole entry, chain 2 of 3): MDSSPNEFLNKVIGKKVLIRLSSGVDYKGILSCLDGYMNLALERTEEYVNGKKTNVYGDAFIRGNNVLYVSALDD
Sequence (O74499 whole entry, chain 3 of 3): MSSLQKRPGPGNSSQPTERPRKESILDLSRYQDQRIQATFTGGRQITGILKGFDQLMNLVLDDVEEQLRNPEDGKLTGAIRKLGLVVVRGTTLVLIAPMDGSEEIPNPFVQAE
measuredEndpoint: pKd
Reminder that pKd is minus the log10 of a molar concentration.

Ask: I would be grateful if you could share the reported pKd for UUUUUUUUUUUUUUU (ssRNA) [U15 (FAM)] .
Result: 4.28
